Listed below are compounds with IC50 for Kinesin-like protein KIF11 (Homo sapiens, UniProt P52732), each taken from published literature.

{"compound": "CN(C)CCCC1(c2ccccc2)C=C(c2cc(F)ccc2F)CN1C(=O)N(C)C1CCOCC1 (centres unmarked)", "subject.of.test": "Kinesin-like protein KIF11 (Homo sapiens, UniProt P52732)", "measure.name": "IC50", "endpoint.value": "≤ 50 µM"}
{"compound": "CN1C[C@H]2C(c3cc(F)ccc3F)=C[C@@H](c3ccccc3)N2C1=O (racemic)", "subject.of.test": "Kinesin-like protein KIF11 (Homo sapiens, UniProt P52732)", "measure.name": "IC50", "endpoint.value": "≤ 50 µM"}
{"compound": "COCC1(c2ccccc2)C=C(c2cc(F)ccc2F)CN1C(=O)N(C)C1CCN(C)CC1 (centres unmarked)", "subject.of.test": "Kinesin-like protein KIF11 (Homo sapiens, UniProt P52732)", "measure.name": "IC50", "endpoint.value": "≤ 50 µM"}
{"compound": "CN(C)C(=O)N1CC(c2cc(F)ccc2F)=CC1(COCCN)c1ccccc1 (centres unmarked)", "subject.of.test": "Kinesin-like protein KIF11 (Homo sapiens, UniProt P52732)", "measure.name": "IC50", "endpoint.value": "≤ 50 µM"}
{"compound": "CCC(c1nc2sc(Br)cc2c(=O)n1Cc1ccccc1)N(CCN(C)C)C(=O)c1ccc(Br)cc1 (centres unmarked)", "subject.of.test": "Kinesin-like protein KIF11 (Homo sapiens, UniProt P52732)", "measure.name": "IC50", "endpoint.value": "≤ 50 µM"}
{"compound": "CN(C(=O)N1CC(c2cc(F)ccc2F)=C[C@@]1(CO)c1ccccc1)[C@@H]1CCNC[C@@H]1F", "subject.of.test": "Kinesin-like protein KIF11 (Homo sapiens, UniProt P52732)", "measure.name": "IC50", "endpoint.value": "≤ 50 µM"}

Log: Kinesin-like protein KIF11 (Homo sapiens, UniProt P52732), compound CN(C)C(=O)N1CC(c2cc(F)ccc2F)=C[C@@]1(CCC(N)C(F)F)c1ccccc1 (some centres unmarked) , IC50 = ≤ 50 µM

Log: Kinesin-like protein KIF11 (Homo sapiens, UniProt P52732), compound `Cc1ccc(-n2c(-c3ccccc3Br)nccc2=O)cc1F` , IC50 = ≤ 50 µM
